Collected literature values of Ki measured for UniProt P11229.
Sequence (P11229 whole entry): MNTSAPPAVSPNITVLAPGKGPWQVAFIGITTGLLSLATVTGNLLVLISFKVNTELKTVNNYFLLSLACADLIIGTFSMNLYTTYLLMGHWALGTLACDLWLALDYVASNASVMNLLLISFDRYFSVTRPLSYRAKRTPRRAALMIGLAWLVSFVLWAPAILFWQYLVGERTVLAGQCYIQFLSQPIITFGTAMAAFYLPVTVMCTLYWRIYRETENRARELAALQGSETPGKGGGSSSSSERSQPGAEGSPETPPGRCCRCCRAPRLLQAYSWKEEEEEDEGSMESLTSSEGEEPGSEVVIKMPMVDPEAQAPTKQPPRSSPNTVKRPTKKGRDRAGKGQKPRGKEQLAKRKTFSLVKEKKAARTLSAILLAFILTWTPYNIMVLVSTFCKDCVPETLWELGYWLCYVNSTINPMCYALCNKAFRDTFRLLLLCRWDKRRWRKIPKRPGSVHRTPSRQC
property_label: Ki (nM)

Previously resolved entries follow.
CC(C)N(CC[C@H](c1ccccc1)c1cc(CCNC(=O)CCCCCNC(=O)COc2ccc(/C=C/C3=[N+]4C(=Cc5ccc(-c6cccs6)n5[B-]4(F)F)C=C3)cc2)ccc1O)C(C)C	4.6
O=C(CCC1=[N+]2C(=Cc3ccc(-c4cccs4)n3[B-]2(F)F)C=C1)NCCOCCOCCOCCOCCOCCOCCN1CCN(CC(=O)N2c3ccccc3C(=O)Nc3cccnc32)CC1	8.9

(1) CCN(CC)c1ccc(/C=C/c2cc[n+](CCC[N+](CC)(CC)CC)cc2)cc1
(2) COc1ccccc1C(O)C1=CN2CCC1CC2 (centres undefined)
Q: Thinking about recorded Ki values, which is higher, 1 or 2 ? Write down the label of the entry you select.
Ans: 2
(2: 330 nM, 1: 34 nM)
